The measured values listed here are drawn from patent US20210380703A1.

- measured.on: T1, Human ACVR2A (human, UniProt P27037 20-135, limits assumed)
- T1 construct: also called activin receptor, type II A
- test.name: ELISA; also: test concentration or dose not given here
metric: optical density (OD)
Form entry: value (OD) — number only.

optical density for 367_E07 (antibody, V domains shown, VH/VL only) VH: EVQLLESGGGLVQPGGSLRLSCAASGFTFSDYSMNWVRQAPGKGLEWVSSINYNGGYKGYADSVKGRFTISRDNSKNTLYLQMNSLRAEDTAVYYCARGATWHDTHLDYWGQGTLVTVSS VL: DIQMTQSPSSLSASVGDRVTITCRASQSILSYVNWYQQKPGKAPKLVIYAATSRASGVPSRFSGSGSGTDFTLTISSLQPEDFATYYCQQSYENPLTFGGGTKVEIK is 1.94

Entry 365_H10 (antibody, V domains shown, VH/VL only) VH: EVQLLESGGGLVQPGGSLRLSCAASGFTFDSYGMNWVRQAPGKGLEWVAGINYNSGYKSYADSVKGRFTISRDNSKNTLYLQMNSLRAEDTAVYYCARSANWHDTHLDYWGQGTLVTVSS VL: DIQMTQSPSSLSASVGDRVTITCRASQSIVTYVNWYQQKPGKAPKLVIYAATSLASGVPSRFSGSGSGTDFTLTISSLQPEDFATYYCQQSYNTPLTFGGGTKVEIK — recorded optical density = 2.68

Sample 374_D04 (antibody, V domains shown, VH/VL only) VH: EVQLLESGGGLVQPGGSLRLSCAASGFTFSSYSMNWVRQAPGKGLEWVAGINYNGGYTSYADSVKGRFTISRDNSKNTLYLQMNSLRAEDTAVYYCARGATWHDTHLDYWGQGTLVTVSS VL: DIQMTQSPSSLSASVGDRVTITCRASQSILSYLNWYQQKPGKAPKLVIYAATSRHSGVPSRFSGSGSGTDFTLTISSLQPEDFATYYCQQSYDTPLTFGGGTKVEIK ; optical density observed: 3.63

The value of optical density measured for the binder 369_H02 (antibody, V domains shown, VH/VL only) VH: EVQLLESGGGLVQPGGSLRLSCAASGFTFDDYSMNWVRQAPGKGLEWVSNINYNGGYKSYADSVKGRFTISRDNSKNTLYLQMNSLRAEDTAVYYCARGATWHDTHLDYWGQGTLVTVSS VL: DIQMTQSPSSLSASVGDRVTITCRASQSIISYLNWYQQKPGKAPKLLIYAATSRASGVPSRFSGSGSGTDFTLTISSLQPEDFATYYCQQSYDSPLTFGGGTKVEIK turned out to be 3.09

Looking up 375_C11 (antibody, V domains shown, VH/VL only) VH: EVQLLESGGGLVQPGGSLRLSCAASGFTFSSYSMNWVRQAPGKGLEWVSSINYNGGYTSYADSVKGRFTISRDNSKNTLYLQMNSLRAEDTAVYYCARGATWHDTHLDYWGQGTLVTVSS VL: DIQMTQSPSSLSASVGDRVTITCRASQSILSYVNWYQQKPGKAPKLLIYAATSRHSGVPSRFSGSGSGTDFTLTISSLQPEDFATYYCQQSYDTPLTFGGGTKVEIK , I found its optical density recorded as 3.59
